- System: SKBR3 (PI3Kα-Wild Type) cell line
- assay-procedure: HTRF phospho-AKT(S473) cell assay in SKBR3 cells
- Assay type: cell-based, human
- experimental-context: Homo sapiens, SK-BR-3; SKBR3 (PI3Kα-Wild Type) cell line, phospho-AKT(S473) HTRF, 2 hours compound incubation, PDGF-BB stimulated
readout-type: IC50

Study these solved cases before continuing.
{"molecule": "Cc1cc([C@@H](C)Nc2ccc(Cl)nc2C(=O)NS(C)(=O)=O)c2nc(-c3ccc4nn(-c5ncccn5)cc4c3)n(C)c(=O)c2c1", "IC50": "1 to 5 µM"}
{"molecule": "Cc1cc([C@@H](C)Nc2ccc(Cl)nc2C(=O)NS(C)(=O)=O)c2nc(-c3ccc4nn(C)cc4n3)n(C)c(=O)c2c1", "IC50": "1 to 5 µM"}
{"molecule": "Cc1cc([C@@H](C)Nc2ccc(Cl)nc2C(=O)NS(C)(=O)=O)c2nc([C@H]3[C@@H]4CN(c5ccnc(C)n5)C[C@@H]43)n(C)c(=O)c2c1", "IC50": "≥ 5 µM"}

Input line: Give the reported value of IC50 for this record: "Cc1cc([C@@H](C)Nc2ccc(Cl)nc2C(=O)NS(C)(=O)=O)c2nc(-c3ccc(-c4nc(C)no4)nc3)n(C)c(=O)c2c1"
Output line: 1 to 5 µM

Input line: Give the reported value of IC50 for this record: "Cc1cnc(-c2ccc(-c3nc4c([C@@H](C)Nc5ccc(Cl)nc5C(=O)NS(C)(=O)=O)cc(C)cc4c(=O)n3C)cn2)nc1"
Output line: 1 to 5 µM

Input line: Give the reported value of IC50 for this record: "COc1nc2cc(-c3nc4c([C@@H](C)Nc5ccc(Cl)nc5C(=O)NS(C)(=O)=O)cc(C)cc4c(=O)n3C)ccc2n1C"
Output line: ≥ 5 µM

---

Listed molecules paired with reported IC50
- Test system: T47D (PI3Kα-H1047R) cell line
- assay-procedure: HTRF phospho-AKT(S473) cell assay in T47D cells
- Format: cell-based, human
- experimental-context: Homo sapiens; HTRF phospho-AKT(S473), T47D (PI3Kα-H1047R) cells, 2 hours compound incubation

Input line: Give the reported value of IC50 for this record: C[C@@H](Nc1ccc(Cl)nc1C(=O)NS(C)(=O)=O)c1cc(C(F)(F)F)cc2c(=O)n(C)c(N3C[C@@H]4[C@H](C3)[C@H]4c3ccn(C)n3)nc12 [Compound 452]
Output line: 250 to 500 nM

Input line: Give the reported value of IC50 for this record: CO[C@H]1CCC2(CCN(c3nc4c([C@@H](C)Nc5ccc(Cl)nc5C(=O)NS(C)(=O)=O)cc(C)cc4c(=O)n3C)CC2)OC1 (mixture of isomers) [Compound 721]
Output line: 250 to 500 nM

Input line: Give the reported value of IC50 for this record: Cc1cc([C@@H](C)Nc2ccc(Cl)nc2C(=O)NS(C)(=O)=O)c2nc(N3C[C@@H]4[C@H](C3)[C@H]4n3ncc(F)c3C)n(C)c(=O)c2c1 [Compound 632]
Output line: 250 to 500 nM

Input line: Give the reported value of IC50 for this record: [2H]C([2H])([2H])n1cc(F)c(C2CCN(c3nc4c([C@@H](C)Nc5ccc(Cl)nc5C(=O)NS(C)(=O)=O)cc(C)cc4c(=O)n3C)CC2)n1 [Compound 456]
Output line: < 250 nM

Input line: Give the reported value of IC50 for this record: Cc1cc([C@@H](C)Nc2ccc(Cl)nc2C(=O)NS(C)(=O)=O)c2nc(N3CC[C@@H](c4ccc(C)nc4)C3)n(C)c(=O)c2c1 (relative stereo) [Compound 659]
Output line: < 250 nM

Input line: Give the reported value of IC50 for this record: Cc1cc([C@@H](C)Nc2ccc(Cl)nc2C(=O)NS(C)(=O)=O)c2nc(N3C[C@@H]4[C@H](C3)[C@H]4c3cnc(C)nc3C)n(C)c(=O)c2c1 [Compound 578]
Output line: < 250 nM

Input line: Give the reported value of IC50 for this record: Cc1cc([C@@H](C)Nc2ccc(Cl)nc2C(=O)NS(C)(=O)=O)c2nc(N3C[C@@H]4[C@H](C3)[C@H]4c3ccn(C(F)F)n3)n(C)c(=O)c2c1 [Compound 470]
Output line: < 250 nM

Input line: Give the reported value of IC50 for this record: COc1ncc([C@H]2[C@@H]3CN(c4nc5c([C@@H](C)Nc6ccc(Cl)nc6C(=O)NS(C)(=O)=O)cc(C)cc5c(=O)n4C)C[C@@H]32)cn1 [Compound 483]
Output line: < 250 nM
